Numbers sourced from patent US9688764B2.

% Kill reference
# System: PC3/hPRLR cells
# protocol-description: Cell viability (cell kill) assay
# Format: cell-based, human
# condition-summary: PC3/PRLR; Table 11; 3 days
Answer with the figure and its unit, nothing else.

The molecule identified as H1H6975N-DM1 (conjugate) VH: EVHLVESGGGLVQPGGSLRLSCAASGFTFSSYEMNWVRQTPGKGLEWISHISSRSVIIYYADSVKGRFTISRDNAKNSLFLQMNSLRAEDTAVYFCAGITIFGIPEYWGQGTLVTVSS VL: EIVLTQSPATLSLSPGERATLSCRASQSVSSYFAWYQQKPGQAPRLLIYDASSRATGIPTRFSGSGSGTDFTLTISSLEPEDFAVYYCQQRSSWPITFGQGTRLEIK registered its % Kill at 68%

# ---- query molecule ----
Looking up H1H6765P-DM1: anti-PRLR antibody H1H6765P conjugated to DM1 through an SMCC linker (conjugate) VH: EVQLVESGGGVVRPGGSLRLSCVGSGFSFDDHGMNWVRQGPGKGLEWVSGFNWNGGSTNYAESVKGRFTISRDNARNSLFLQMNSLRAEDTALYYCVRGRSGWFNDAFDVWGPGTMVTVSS VL: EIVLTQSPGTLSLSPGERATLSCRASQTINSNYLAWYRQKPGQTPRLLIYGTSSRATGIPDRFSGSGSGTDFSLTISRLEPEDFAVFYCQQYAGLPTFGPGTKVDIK , I see its % Kill listed as 70%
